molecular target: EGFR L858R/T790M/C797S (H1975-clone #25) (Homo sapiens, UniProt P00533, C797S/L858R/T790M); construct: expressed in transfected cells; host or cells: H1975 (clone #25), lentiviral transduction, endogenous EGFR knocked out; assay: EGFR degradation, HTRF total-EGFR assay, H1975-clone #25 (LTC); assay type: cell-based; details: H1975-clone #25 L858R/T790M/C797S, 16 h treatment
Sequence (P00533 25-1210 T790M/C797S/L858R): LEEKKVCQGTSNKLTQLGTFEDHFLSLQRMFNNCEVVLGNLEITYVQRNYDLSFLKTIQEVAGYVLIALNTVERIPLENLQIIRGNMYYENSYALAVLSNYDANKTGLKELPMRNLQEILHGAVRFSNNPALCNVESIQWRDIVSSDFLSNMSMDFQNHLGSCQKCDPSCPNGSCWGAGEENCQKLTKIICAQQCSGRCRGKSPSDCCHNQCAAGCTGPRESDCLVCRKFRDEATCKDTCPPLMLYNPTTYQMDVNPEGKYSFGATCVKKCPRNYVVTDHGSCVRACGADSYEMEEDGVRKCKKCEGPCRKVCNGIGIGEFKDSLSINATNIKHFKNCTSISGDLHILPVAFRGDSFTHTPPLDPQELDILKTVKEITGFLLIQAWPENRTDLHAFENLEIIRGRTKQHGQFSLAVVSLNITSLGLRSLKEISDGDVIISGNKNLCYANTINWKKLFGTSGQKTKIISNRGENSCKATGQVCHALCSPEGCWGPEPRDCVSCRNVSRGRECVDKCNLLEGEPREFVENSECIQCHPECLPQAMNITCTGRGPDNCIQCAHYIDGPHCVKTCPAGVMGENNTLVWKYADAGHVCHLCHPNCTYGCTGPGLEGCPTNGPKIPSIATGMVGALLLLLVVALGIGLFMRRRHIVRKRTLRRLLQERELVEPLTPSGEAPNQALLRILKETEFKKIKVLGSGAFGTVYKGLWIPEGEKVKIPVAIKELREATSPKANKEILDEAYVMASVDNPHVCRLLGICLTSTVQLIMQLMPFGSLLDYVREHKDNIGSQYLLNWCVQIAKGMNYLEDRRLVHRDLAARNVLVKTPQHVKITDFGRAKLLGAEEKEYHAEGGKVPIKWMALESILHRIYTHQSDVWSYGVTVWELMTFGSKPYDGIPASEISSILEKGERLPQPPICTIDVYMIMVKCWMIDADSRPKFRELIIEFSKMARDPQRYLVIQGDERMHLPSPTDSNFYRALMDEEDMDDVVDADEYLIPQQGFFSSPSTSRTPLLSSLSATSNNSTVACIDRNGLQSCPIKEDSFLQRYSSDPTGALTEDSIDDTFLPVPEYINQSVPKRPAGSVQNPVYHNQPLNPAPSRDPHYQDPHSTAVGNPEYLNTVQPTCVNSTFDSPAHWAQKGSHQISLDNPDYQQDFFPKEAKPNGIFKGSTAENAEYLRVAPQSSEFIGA
RECORDED_ENDPOINT: Degradation H1975 # 25-LTC

{"COMPOUND": "Cc1cc2cc(n1)-c1cnn(C)c1OC[C@H]1C[C@@H](CN3/C(=N/C2=O)Nc2ccc(N4CCN(C5CCN(c6ccc(C7CCC(=O)NC7=O)nc6)CC5)C[C@H]4C)cc23)C1 (some centres unmarked) [Example 7]", "EXPERIMENTAL_SYSTEM": "EGFR L858R/T790M/C797S (H1975-clone #25) (Homo sapiens, UniProt P00533, C797S/L858R/T790M)", "QUANTITATIVE_RESULT": 78.6}
{"COMPOUND": "Cc1cc2cc(n1)-c1cnn(C)c1OC[C@H]1C[C@@H](CN3/C(=N/C2=O)Nc2ccc(N4CCN(CCc5cc(F)c([C@H]6CCC(=O)NC6=O)c(F)c5)CC4=O)cc23)C1 [Example 9]", "EXPERIMENTAL_SYSTEM": "EGFR L858R/T790M/C797S (H1975-clone #25) (Homo sapiens, UniProt P00533, C797S/L858R/T790M)", "QUANTITATIVE_RESULT": 88.5}
{"COMPOUND": "Cc1cc2cc(n1)-c1cnn(C)c1OC[C@H]1C[C@@H](CN3/C(=N/C2=O)Nc2ccc(N4CCN(C5CCN(c6cc(F)c([C@H]7CCC(=O)NC7=O)c(F)c6)CC5)CC4=O)cc23)C1 [Example 10]", "EXPERIMENTAL_SYSTEM": "EGFR L858R/T790M/C797S (H1975-clone #25) (Homo sapiens, UniProt P00533, C797S/L858R/T790M)", "QUANTITATIVE_RESULT": 89.8}
{"COMPOUND": "COC[C@H]1CN(c2ccc3c(c2)N2C[C@H]4C[C@@H](COc5c(cnn5C)-c5cc(cc(C)n5)C(=O)/N=C/2N3)C4)CCN1C1CCN(c2cnc(C3CCC(=O)NC3=O)cc2C)CC1 (some centres unmarked) [Example 23]", "EXPERIMENTAL_SYSTEM": "EGFR L858R/T790M/C797S (H1975-clone #25) (Homo sapiens, UniProt P00533, C797S/L858R/T790M)", "QUANTITATIVE_RESULT": 91.3}
{"COMPOUND": "Cc1cc2cc(n1)-c1cnn(C)c1OC[C@H]1C[C@@H](CN3/C(=N/C2=O)Nc2ccc(N(C)CC4CN(C5CCN(c6ccc(C7CCC(=O)NC7=O)nc6C)CC5)C4)cc23)C1 (some centres unmarked) [Example 114]", "EXPERIMENTAL_SYSTEM": "EGFR L858R/T790M/C797S (H1975-clone #25) (Homo sapiens, UniProt P00533, C797S/L858R/T790M)", "QUANTITATIVE_RESULT": 86.8}

====

Molecular target: EGFR L858R (BaF3-L858R) (Homo sapiens, UniProt P00533, L858R)
Construct: host or cells: BaF3
Sequence (P00533 25-1210 L858R): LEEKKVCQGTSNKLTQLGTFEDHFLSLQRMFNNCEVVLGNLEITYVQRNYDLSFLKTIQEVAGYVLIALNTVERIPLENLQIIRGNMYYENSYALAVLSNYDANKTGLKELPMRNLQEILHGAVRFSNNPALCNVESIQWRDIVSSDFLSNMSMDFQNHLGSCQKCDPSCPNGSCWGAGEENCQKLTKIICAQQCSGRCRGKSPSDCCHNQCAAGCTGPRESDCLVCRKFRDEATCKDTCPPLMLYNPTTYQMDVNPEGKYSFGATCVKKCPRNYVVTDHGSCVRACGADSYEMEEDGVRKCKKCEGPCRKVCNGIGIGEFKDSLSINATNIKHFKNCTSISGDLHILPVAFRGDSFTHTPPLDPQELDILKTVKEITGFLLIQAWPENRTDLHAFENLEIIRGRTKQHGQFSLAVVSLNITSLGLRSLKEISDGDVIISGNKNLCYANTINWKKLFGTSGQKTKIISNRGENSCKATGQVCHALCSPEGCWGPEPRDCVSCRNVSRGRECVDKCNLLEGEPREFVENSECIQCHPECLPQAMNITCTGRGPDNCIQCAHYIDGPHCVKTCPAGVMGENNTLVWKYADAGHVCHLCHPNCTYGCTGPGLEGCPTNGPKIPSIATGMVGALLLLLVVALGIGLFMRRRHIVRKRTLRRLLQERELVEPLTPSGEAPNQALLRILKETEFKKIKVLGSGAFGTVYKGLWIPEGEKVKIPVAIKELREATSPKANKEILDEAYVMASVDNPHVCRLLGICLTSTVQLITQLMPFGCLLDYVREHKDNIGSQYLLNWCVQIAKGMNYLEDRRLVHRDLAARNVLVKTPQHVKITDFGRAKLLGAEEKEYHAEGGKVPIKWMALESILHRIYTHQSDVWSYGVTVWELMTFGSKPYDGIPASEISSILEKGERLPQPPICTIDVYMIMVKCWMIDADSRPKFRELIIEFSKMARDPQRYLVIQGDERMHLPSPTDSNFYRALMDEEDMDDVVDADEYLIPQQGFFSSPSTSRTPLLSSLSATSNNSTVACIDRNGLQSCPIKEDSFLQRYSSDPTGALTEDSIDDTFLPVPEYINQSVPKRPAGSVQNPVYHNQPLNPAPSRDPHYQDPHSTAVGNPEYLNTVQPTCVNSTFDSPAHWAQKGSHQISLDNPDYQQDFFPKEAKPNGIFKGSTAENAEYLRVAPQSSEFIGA
Experiment: EGFR degradation, HTRF total-EGFR assay, BaF3-L858R cells
Format: cell-based
Details: 16 h treatment
Procedure: BaF3-L858R (abbv. L858R) cell were purchased from Kangyuan Bochuang Biotechnology (Beijing) Co., Ltd. […] The inhibition (degradation) percentage of the compound was calculated by the following equation: […] High control=Cell group with added DMSO and without compound, indicating microplate readings without EGFR degradation. […]
RECORDED_ENDPOINT: DC50 (nM)

a. Cc1cc2cc(n1)-c1cnn(C)c1OC[C@H]1C[C@@H](CN3/C(=N/C2=O)Nc2ccc(N4CCN(C5CN(C6CCN(c7cc(F)c([C@H]8CCC(=O)NC8=O)c(F)c7)CC6)C5)C[C@H]4C)cc23)C1
b. Cc1cc2cc(n1)-c1cnn(C)c1OC[C@H]1C[C@@H](CN3/C(=N/C2=O)Nc2ccc(N4C[C@H](C)N(C5CCN(c6ccc(C7CCC(=O)NC7=O)nc6C)CC5)C[C@@H]4C)cc23)C1 (stereo partly drawn)
c. CCc1cc(C2CCC(=O)NC2=O)ncc1N1CCC(N2CC(N3CCN(c4ccc5c(c4)N4C[C@H]6C[C@@H](COc7c(cnn7C)-c7cc(cc(C)n7)C(=O)/N=C/4N5)C6)CC3)C2)CC1 (stereo partly drawn)
Q. Give the ascending ranking of the items by reported DC50. Form entry: labels listed in requested order.
A. a, c, b
